B1: TPR 5TU (parent)
chain: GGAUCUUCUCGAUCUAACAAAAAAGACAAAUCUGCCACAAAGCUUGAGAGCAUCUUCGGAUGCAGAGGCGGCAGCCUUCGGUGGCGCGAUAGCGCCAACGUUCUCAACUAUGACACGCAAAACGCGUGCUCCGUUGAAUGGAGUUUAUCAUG

variants of: B1; assay: polymerase ribozyme fitness, log enrichment relative to wild type (log ratio); higher = more active; in vitro selection for triplet polymerase activity
This sample holds only a part of the variants without activity.
PROPERTY MEASURED: polymerase ribozyme fitness (log ratio)
// no unit, no text: just the number

input: # polymerase ribozyme fitness (log ratio) lookup, item U55A G84A A119C G133U G143A
output: -4.03

input: Then `C32G` ?
output: -3.19

input: Then A3U A47C C105U A120C G124A ?
output: -1.78

input: Then U13C A22U A24U U53A A98U ?
output: -1.6

input: Then C114U U148G ?
output: -3.06

input: Then G59C A60G C69U ?
output: -2.47

input: Then A60C C93U C123A ?
output: -1.12

input: Then G94A C123G U146G ?
output: -1.05

input: Then A22G C132U ?
output: -0.512
